Target Desc: RPE65 (Gallus gallus, UniProt Q9YGX2)
Construct: purified chicken recombinant RPE65
Sequence (Q9YGX2 whole entry): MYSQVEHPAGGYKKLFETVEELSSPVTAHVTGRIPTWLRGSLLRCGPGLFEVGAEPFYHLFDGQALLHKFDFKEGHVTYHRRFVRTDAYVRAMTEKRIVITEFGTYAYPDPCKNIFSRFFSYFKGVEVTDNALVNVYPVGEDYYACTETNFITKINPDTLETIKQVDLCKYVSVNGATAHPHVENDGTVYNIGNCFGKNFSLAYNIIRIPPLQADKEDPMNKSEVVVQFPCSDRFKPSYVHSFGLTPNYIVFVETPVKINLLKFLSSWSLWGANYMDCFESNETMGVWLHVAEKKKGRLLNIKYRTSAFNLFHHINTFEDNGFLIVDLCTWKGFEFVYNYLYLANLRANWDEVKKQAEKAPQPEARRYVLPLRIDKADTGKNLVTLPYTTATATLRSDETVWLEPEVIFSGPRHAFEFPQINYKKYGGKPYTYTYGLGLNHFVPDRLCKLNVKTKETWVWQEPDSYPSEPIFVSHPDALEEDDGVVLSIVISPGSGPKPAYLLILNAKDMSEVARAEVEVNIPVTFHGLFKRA
Assay Notes: liposome-based isomerohydrolase assay with all-trans-retinyl palmitate, HPLC of 11-cis-retinol, Lineweaver-Burk

>  <Molecule>
N=S(=O)(CCN)c1cccc(OCC2CCCCC2)c1 (racemic) [(±)-9]

>  <Target Desc>
RPE65 (Gallus gallus, UniProt Q9YGX2)

>  <Ki (µM)>
0.119

$$$$
